- TEST SYSTEM: β2AR (Homo sapiens)
- Sequence (P07550 whole entry): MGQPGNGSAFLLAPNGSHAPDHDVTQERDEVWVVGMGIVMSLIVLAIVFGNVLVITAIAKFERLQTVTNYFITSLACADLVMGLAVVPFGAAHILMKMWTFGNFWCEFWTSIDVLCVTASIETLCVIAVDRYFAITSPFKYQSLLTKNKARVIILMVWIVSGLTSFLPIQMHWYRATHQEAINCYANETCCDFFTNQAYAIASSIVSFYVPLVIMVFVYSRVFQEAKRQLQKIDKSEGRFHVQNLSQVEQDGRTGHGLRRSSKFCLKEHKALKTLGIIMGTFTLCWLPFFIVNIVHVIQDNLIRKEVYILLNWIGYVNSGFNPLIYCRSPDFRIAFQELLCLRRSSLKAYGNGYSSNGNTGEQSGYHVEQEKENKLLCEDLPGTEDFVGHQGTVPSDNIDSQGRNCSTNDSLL
- Format: binding
- APPLIED CONDITIONS: ratio of IC50 with irrelevant Nb to IC50 with 500 nM Nb80; 3H-DHA radioligand
Structures can show the parent of a compound that is named as a salt.
Here, each record is paired with measured Potency shift data.
Form rule: numeric answer, no unit written next to it.

Completed entries (count: 3):
{"columns": ["COMPOUND", "QUANTITY KIND", "QUANTITATIVE RESULT"],
 "data": [
  ["CC(NCCc1ccc(O)cc1)C(O)c1ccc(O)cc1 (stereo not shown) [ritodrine, ritodrine hydrochloride]", "Potency shift", 2.7],
  ["CC(CCc1ccc(O)cc1)NCCc1ccc(O)c(O)c1 (stereo not shown) [dobutamine, dobutamine hydrochloride]", "Potency shift", 2.3],
  ["CCC(NC(C)C)C(O)c1ccc(O)c2[nH]c(=O)ccc12 (stereo not shown) [procaterol, procaterol hydrochloride]", "Potency shift", 2.3]
]}

Proceed to the following item.
For the compound CC(Cc1ccc(O)cc1)NCC(O)c1cc(O)cc(O)c1 (stereo not shown) [fenoterol, fenoterol hydrobromide] , the measured Potency shift on β2AR (Homo sapiens) was 3.7
